src = PubChem BioAssay (NCATS)

# measurementProtocol: qHTS of pediatric cancer cell lines to identify multiple opportunities for drug repurposing: Primary screen for NB-EBc1 cells (AID 1347095)
# appliedConditions: NB-EBc1 neuroblastoma viability, CellTiter-Glo luminescence, 48 h; series mostly up to 46 µM
Results filed as inconclusive are left out. Calls of active or inactive are those of the source. Calls come from the whole dose curve; as a rule, active = well fitted cell-killing curve with a large enough effect; inconclusive = small, poorly fitted or top-dose-only effect; inactive = no such curve, though single readings can be large or run the other way.
Pick from Y = active, N = inactive when you respond.

Example entries and their recorded answers appear below.
compound	groupLabel
COc1ccc(Nc2nccc(NCCO)n2)cc1	N
Nc1cccc2c1C(=O)N(C1CCC(=O)NC1=O)C2=O (stereo unspecified)	N

**Q:** Short answer needed: outcome of this test for "O=[N+]([O-])c1cn2c(n1)OC[C@@H](OCc1ccc(OC(F)(F)F)cc1)C2" ?
**A:** N

**Q:** Short answer needed: outcome of this test for "CCc1cc(C(C)=NOCc2ccc(C3CCCCC3)c(C(F)(F)F)c2)ccc1CN1CC(C(=O)O)C1" ?
**A:** Y

**Q:** Short answer needed: outcome of this test for "CN(C)c1ccc(C(=O)NCCCCCCC(=O)NO)cc1" ?
**A:** Y

**Q:** Short answer needed: outcome of this test for "O=C1c2cccc(O)c2C(=O)c2c(O)cc(CO)cc21" ?
**A:** N
